From: patent US20260242735A1

A collection of binders and their measured Mean % WT Binding
SYSTEM UNDER TEST: human CD33 G245A (human, UniProt P20138 18-364)
Sequence (P20138 18-364 G245A limits assumed): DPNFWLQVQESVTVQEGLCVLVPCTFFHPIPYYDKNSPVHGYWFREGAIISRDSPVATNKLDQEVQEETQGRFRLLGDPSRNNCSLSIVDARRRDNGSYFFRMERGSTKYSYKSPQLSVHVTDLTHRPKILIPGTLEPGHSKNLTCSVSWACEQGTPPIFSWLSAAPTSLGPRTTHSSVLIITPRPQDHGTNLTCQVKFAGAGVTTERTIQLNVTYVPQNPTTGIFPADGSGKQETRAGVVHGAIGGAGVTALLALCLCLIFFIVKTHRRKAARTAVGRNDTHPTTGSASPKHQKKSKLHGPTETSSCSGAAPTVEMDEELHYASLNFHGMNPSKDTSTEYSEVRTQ
MEASUREMENT NOTES: alanine scan, flow cytometry, HEK293-T;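 also: antibody binding to each alanine-substituted CD33 mutant expressed transiently in HEK293-T, read as fluorescence minus background, mean of duplicates, relative to wild-type CD33 set as 100%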
Give the value, in units of % WT binding, as a plain number.

Before answering, review these 3 worked examples.
>  <BINDER>
Refmab #3 (antibody, V domains shown, The alanine scan used IgG or Fab) VH: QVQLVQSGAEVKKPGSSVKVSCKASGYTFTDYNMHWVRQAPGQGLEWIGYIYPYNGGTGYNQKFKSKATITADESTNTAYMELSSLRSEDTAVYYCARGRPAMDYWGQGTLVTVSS VL: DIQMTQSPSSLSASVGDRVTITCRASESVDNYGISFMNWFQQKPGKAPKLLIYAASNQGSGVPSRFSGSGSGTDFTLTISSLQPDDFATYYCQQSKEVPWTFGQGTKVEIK

>  <ENDPOINT VALUE>
127

$$$$
>  <BINDER>
Refmab #1 (antibody, V domains shown, The alanine scan used IgG or Fab; also called hP67.6) VH: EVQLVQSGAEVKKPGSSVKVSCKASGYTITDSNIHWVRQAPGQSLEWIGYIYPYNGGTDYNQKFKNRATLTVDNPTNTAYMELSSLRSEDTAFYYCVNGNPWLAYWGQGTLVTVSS VL: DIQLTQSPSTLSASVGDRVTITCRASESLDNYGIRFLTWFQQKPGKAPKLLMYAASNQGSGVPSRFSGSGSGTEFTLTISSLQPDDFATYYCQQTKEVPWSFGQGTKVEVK

>  <ENDPOINT VALUE>
84.3

$$$$
>  <BINDER>
Refmab #2 (antibody, V domains shown, The alanine scan used IgG or Fab) VH: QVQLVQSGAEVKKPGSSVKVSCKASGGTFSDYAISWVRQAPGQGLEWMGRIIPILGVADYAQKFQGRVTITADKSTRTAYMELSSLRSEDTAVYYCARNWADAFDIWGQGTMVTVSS VL: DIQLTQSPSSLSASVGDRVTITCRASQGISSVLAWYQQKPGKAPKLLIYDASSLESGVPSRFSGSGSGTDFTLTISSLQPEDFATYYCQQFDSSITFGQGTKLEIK

>  <ENDPOINT VALUE>
112

$$$$

We now examine a further binder.
Return reported Mean % WT Binding. Input binder: Refmab #4 (antibody, V domains shown, The alanine scan used IgG or Fab) VH: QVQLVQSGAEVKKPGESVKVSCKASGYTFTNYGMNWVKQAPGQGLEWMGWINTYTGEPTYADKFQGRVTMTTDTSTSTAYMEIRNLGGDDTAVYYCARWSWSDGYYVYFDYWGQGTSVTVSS VL: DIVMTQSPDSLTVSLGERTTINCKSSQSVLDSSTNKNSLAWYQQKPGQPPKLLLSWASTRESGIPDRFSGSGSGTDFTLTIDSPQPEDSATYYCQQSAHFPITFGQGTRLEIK 94.9
